assay: Acute toxicity (method of Litchfield and Wilcoxon); conditions: Swiss, in vivo, oral; mouse, os
observable: LD50 (mg/kg)
# value in mg/kg; strip the unit string

QUERY: For the compound CC1=CCC(C(C)(C)O)CC1OC(=O)C(C)c1ccc(CC(C)C)cc1 (stereo not shown) [AFP-695] , give its reported LD50.
RESULT: 1800
